Data origin, for the record: paper PMC9556824

Listing of entries alongside the reported viability at 12.5 µM.
assay-overview: In vitro cytotoxicity against human normal cell line (MTT)
Assay type: cell-based
condition-details: human, WI38 normal lung fibroblast cells; WI38; Conc. 12.5 µM; read-out: Average of Relative viability of cells (%)
Text: The anticancer agent's selectivity for cancer cells is a critical consideration for any researcher, as it can decrease the molecule's adverse effects on normal human cells.
Give your result in % as a bare value.

COc1ccccc1/C=N/N=C(\C)c1cc2ccccc2o1	93.6

q: For `COc1ccc(/C=N/N=C(\C)c2cc3ccccc3o2)cc1OC` , what is its reported viability at 12.5 µM?
a: 85.2
